test system: Leptnosphaeria nodorum; assay: Example C: Leptnosphaeria nodorum in vitro cell test; format: cell-based; conditions: 144 h, 20 ppm of active ingredient; liquid culture, 6 days incubation, inhibition of fungal growth; read-out: Efficacy
measured attribute: inhibition of growth at 20 ppm

> print(dat)
                                    compound     experimental.target  reported.value
 1  C=C1c2ccccc2N(c2cnc3c(F)c(F)ccc3c2)S(=O)(=O)C1(C)C [I.219]  Leptnosphaeria nodorum      90 to 100%
 2  CC1C(C)(C)c2ccccc2N(c2cnc3ccccc3c2)S1(=O)=O (stereo not drawn) [I.173]  Leptnosphaeria nodorum      90 to 100%
 3  O=S1(=O)Cc2ccccc2N1c1cnc2c(F)cccc2c1 [I.018]  Leptnosphaeria nodorum      90 to 100%
 4  CC1(O)c2ccccc2N(c2cnc3ccccc3c2)S(=O)(=O)C1(C)C (stereo not drawn) [I.213]  Leptnosphaeria nodorum       80 to 89%
 5  CC1(C)c2ccccc2N(c2cnc3c(F)cccc3c2)S1(=O)=O [I.015]  Leptnosphaeria nodorum      90 to 100%
 6  CC1(F)c2ccccc2N(c2cnc3c(F)c(F)ccc3c2)S(=O)(=O)C1(C)C (stereo not drawn) [I.225]  Leptnosphaeria nodorum      90 to 100%
 7  CC1(C)c2ccccc2N(c2cnc3ccccc3c2)S(=O)(=O)C1(C)C [I.172]  Leptnosphaeria nodorum      90 to 100%
 8  CC1(OCc2ccccc2)c2ccccc2N(c2cnc3ccccc3c2)S(=O)(=O)C1(C)C (stereo not drawn) [I.250]  Leptnosphaeria nodorum      90 to 100%
 9  COC1N(c2cnc3c(F)cccc3c2)c2ccccc2C1(C)C (stereo not drawn) [CMP1, reference compound]  Leptnosphaeria nodorum              5%
10  CC1(C)C(=O)c2ccccc2N(c2cnc3ccccc3c2)S1(=O)=O [I.156]  Leptnosphaeria nodorum       70 to 79%
11  CC1Cc2ccccc2N(c2cc3ccccc3[n+]([O-])c2)S1(=O)=O (stereo not drawn) [I.162]  Leptnosphaeria nodorum      90 to 100%
12  CC1(C)C(F)(F)c2ccccc2N(c2cnc3ccccc3c2)S1(=O)=O [I.163]  Leptnosphaeria nodorum      90 to 100%

---

conditions: Method A: 40° C., 0.1% aqueous formic acid and acetonitrile, gradient 10% to 95% acetonitrile
Each record here notes measured chromatographic logP.
measured attribute: chromatographic logP

> print(dat)
                                    compound  reported.value
 1        FC(F)(F)c1cccc2cc(I)cnc12 [II.01A]            3.11
 2             N#Cc1cccc2cc(I)cnc12 [II.11A]            2.54
 3  O=S1(=O)Cc2c(cccc2OC(F)(F)F)N1 [III.04A]            2.11
 4  O=S1(=O)Cc2ccccc2N1c1cnc2c(F)cccc2c1 [I.018]            2.52
 5            Clc1ccc2cc(I)cnc2c1Cl [II.07A]            3.83
 6            Fc1cc(F)c2ncc(I)cc2c1 [II.05A]            2.88
 7              Cc1ccc2cc(I)cnc2c1F [II.03A]            3.11
 8            Fc1ccc(F)c2ncc(I)cc12 [II.06A]            2.94
 9           Fc1c(Cl)ccc2cc(I)cnc12 [II.02A]            3.37
10              Fc1cc2cc(I)cnc2cc1F [II.08A]            3.15
11   O=S1(=O)Cc2c(cccc2C(F)(F)F)N1 [III.02A]            1.99
12           Fc1cc(Cl)cc2cc(I)cnc12 [II.09A]            3.15
13             N#Cc1ccc2ncc(I)cc2c1 [II.04A]             2.5

---

conditions: Method C: HPLC reversed-phase C 18, 55° C., 0.1% aqueous formic acid and acetonitrile, gradient 10% to 95% acetonitrile
Recorded chromatographic logP for the following molecules
measured attribute: chromatographic logP

> print(dat)
                                   molecule  reported.value
1  CC1(F)c2ccccc2N(c2cnc3c(F)c(F)ccc3c2)S(=O)(=O)C1(C)C (centres unmarked)             3.6
2  O=S1(=O)CC(=NOCc2ccccc2)c2ccccc2N1c1cnc2ccccc2c1            3.94
3  O=C1c2ccccc2N(c2cnc3ccccc3c2)S(=O)(=O)C1(Cl)Cl            3.49
4  C=C1c2ccccc2N(c2cnc3c(F)c(F)ccc3c2)S(=O)(=O)C1(C)C            3.34
5  CC1(O)c2ccccc2N(c2cnc3ccccc3c2)S(=O)(=O)C1(C)C (centres unmarked)            2.46

---

details: Method A: 40° C., 0.1% aqueous formic acid and acetonitrile, gradient 10% to 95% acetonitrile
measured attribute: chromatographic logP

> print(dat)
                                   molecule  reported.value
1          O=S1(=O)Cc2c(F)cccc2N1 [III.01A]            1.34
2            Cc1ccc(F)c2ncc(I)cc12 [II.10A]            3.06
3   O=S1(=O)Cc2cc(C(F)(F)F)ccc2N1 [III.03A]            1.95
4  CC1(C)c2ccccc2N(c2cnc3c(F)cccc3c2)S1(=O)=O            3.12
5        N#Cc1cccc2c1CS(=O)(=O)N2 [III.05A]            1.08
6            Fc1cc(F)c2cc(I)cnc2c1 [II.12A]            3.31

---

Overview of recorded chromatographic logP for various compounds
conditions: Method C: 55° C., 0.1% aqueous formic acid and acetonitrile, gradient 10% to 95% acetonitrile
measured attribute: chromatographic logP

> print(dat)
                                    compound  reported.value
 1        O=S1(=O)Nc2ccccc2CC12CC2 [III.07A]            1.49
 2  COC(=O)c1ccccc1N(c1cnc2ccccc2c1)S(C)(=O)=O [Xa.02]            2.17
 3  C=C1c2ccccc2N(c2cnc3c(F)c(F)ccc3c2)S(=O)(=O)C1(C)C [I.219]            3.34
 4  CC1Cc2ccccc2N(c2cnc3ccccc3c2)S1(=O)=O (centres unmarked) [I.158]            2.58
 5  COC(=O)c1ccccc1Nc1cnc2ccccc2c1 [methyl 2-(quinolin-3-ylamino)benzoate]            2.96
 6           O=S1(=O)CCCc2ccccc2N1 [IIIc.02]             1.2
 7  CC1(C)CS(=O)(=O)N(c2cnc3ccccc3c2)c2ccccc21 [I.166]            2.88
 8  O=S1(=O)N(Cc2ccccc2)c2ccccc2CC12CC2 [IV.01A]            3.19
 9  CC(C)(CS(=O)(=O)Nc1cnc2ccccc2c1)c1ccccc1Br [VIIIa.18]            2.98
10  CC1C(C)(C)c2ccccc2N(c2cnc3ccccc3c2)S1(=O)=O (centres unmarked) [I.173]            3.53
11  CC1(C)c2ccccc2N(c2cnc3ccccc3c2)S(=O)(=O)C1(C)C [I.172]            3.85
12  CC1(C)C(F)(F)c2ccccc2N(c2cnc3ccccc3c2)S1(=O)=O [I.163]            3.25
13  O=S1(=O)CC(=NOCc2ccccc2)c2ccccc2N1c1cnc2ccccc2c1 [I.241]            3.94
14  CC1(OCc2ccccc2)c2ccccc2N(c2cnc3ccccc3c2)S(=O)(=O)C1(C)C (centres unmarked) [I.250]            4.04
15  O=C1CS(=O)(=O)N(c2cnc3ccccc3c2)c2ccccc21 [I.159]            2.28
16  CC1(F)c2ccccc2N(c2cnc3c(F)c(F)ccc3c2)S(=O)(=O)C1(C)C (centres unmarked) [I.225]             3.6
17  O=C1c2ccccc2N(c2cnc3ccccc3c2)S(=O)(=O)C1(Cl)Cl [I.239]            3.49
18  CC1Cc2ccccc2NS1(=O)=O (centres unmarked)            1.33
19        CC1(C)Cc2ccccc2NS1(=O)=O [III.06A]             1.6
20  CC1Cc2ccccc2N(c2cc3ccccc3[n+]([O-])c2)S1(=O)=O (centres unmarked) [I.162]            1.81
21    O=S1(=O)C=CCc2ccccc2N1Cc1ccccc1 [V.01]            6.01
22  CC1(C)C(=O)c2ccccc2N(c2cnc3ccccc3c2)S1(=O)=O [I.156]            2.93
23  CC1(O)c2ccccc2N(c2cnc3ccccc3c2)S(=O)(=O)C1(C)C (centres unmarked) [I.213]            2.46
